Measured values drawn from paper PMC6409085 for this set.

Target: SfurOBP2 (Sogatella furcifera)
Sequence (V5T759 entry or part of it): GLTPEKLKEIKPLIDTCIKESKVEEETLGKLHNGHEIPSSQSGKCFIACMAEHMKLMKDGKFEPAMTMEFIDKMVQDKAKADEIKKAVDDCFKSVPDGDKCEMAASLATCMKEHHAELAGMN
Test: biochemical
Assay type: binding
Details: ligand concentration 16 (unit not given), replicate column 1 of 3
Quantity: Fluorescence competitive binding assay, OBP2 (raw fluorescence reading)

Query: Note Fluorescence competitive binding assay, OBP2 (raw fluorescence reading) for the compound shown: CCCCCCCCCCCCCCCC(=O)OC [MH(methyl hexadecanoate)]
Result: 57526

Query: Give Fluorescence competitive binding assay, OBP2 (raw fluorescence reading) for the following compound: O=Cc1ccccc1
Result: 12066

Query: Read off the recorded Fluorescence competitive binding assay, OBP2 (raw fluorescence reading) for Cc1ccc(C(C)C)cc1
Result: 12972

Query: Given CCCCCCCCCCCCCCCCCC , respond with its Fluorescence competitive binding assay, OBP2 (raw fluorescence reading).
Result: 18660

Query: Please supply the value of reported Fluorescence competitive binding assay, OBP2 (raw fluorescence reading) for the item Cc1cc(C(C)(C)C)c(O)c(C(C)(C)C)c1
Result: 12208

Query: Complete the entry with Fluorescence competitive binding assay, OBP2 (raw fluorescence reading) for C=CC(C)(O)CCC=C(C)CCC=C(C)C (mixture of isomers)
Result: 11027

###

Target: SfurOBP2 (Sogatella furcifera)
Experiment: biochemical
Assay type: binding
Settings: ligand concentration 6 (unit not given), replicate column 1 of 3
Quantity: Fluorescence competitive binding assay, OBP2 (raw fluorescence reading)

Query: // output Fluorescence competitive binding assay, OBP2 (raw fluorescence reading); input CCCCCC(C)=O ; system SfurOBP2 (Sogatella furcifera)
Result: 17013

Query: Enter Fluorescence competitive binding assay, OBP2 (raw fluorescence reading) (test system SfurOBP2 (Sogatella furcifera)) for CC1=CC[C@@H](C(C)(C)O)CC1
Result: 19485

Query: Please tell me the measured Fluorescence competitive binding assay, OBP2 (raw fluorescence reading) for CC(=O)c1ccccc1 ; system: SfurOBP2 (Sogatella furcifera).
Result: 17576

Query: Print SfurOBP2 (Sogatella furcifera) Fluorescence competitive binding assay, OBP2 (raw fluorescence reading) for CC/C=C\CCO [(Z)-3-hexenol] .
Result: 19561

###

Target: SfurOBP11 (Sogatella furcifera, UniProt V5T6E3)
Sequence (V5T6E3 entry or part of it): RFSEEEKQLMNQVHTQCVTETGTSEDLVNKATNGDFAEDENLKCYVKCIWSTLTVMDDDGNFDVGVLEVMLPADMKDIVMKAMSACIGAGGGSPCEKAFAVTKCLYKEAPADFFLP
Assay: biochemical
Type: binding
Conditions: ligand concentration 4, replicate 3
Quantity: Fluorescence intensity, fluorescence competitive binding assay, OBP11
Form rule: numeric answer, no unit written next to it.

>>> df
                                   compound  value_observed
0    CC(=O)/C=C/C1=C(C)CCCC1(C)C [β-Ionone]           26168
1                      CCCCCCCC=O [octanal]           26788
2                 CCCCCC(C)=O [2-heptanone]           25072
3  C=CC(C)(O)CCC=C(C)C (centres unmarked) [linalool]           36540
4  CC(C)COC(=O)CCCCC(=O)OCC(C)C [DA(diisobutyl adipate)]           25942

Query: Provide only the value of recorded Fluorescence intensity, fluorescence competitive binding assay, OBP11 for CCCCCCCCCCC [n-hendecane]
Result: 33638

Query: Please report Fluorescence intensity, fluorescence competitive binding assay, OBP11 for the following compound: CCCCCCCC [n-octane]
Result: 31065

Query: Item CC1=CC[C@@H](C(C)(C)O)CC1 [α-terpineol] : provide Fluorescence intensity, fluorescence competitive binding assay, OBP11
Result: 30942

Query: Please indicate Fluorescence intensity, fluorescence competitive binding assay, OBP11 recorded for c1ccc2ccccc2c1 [naphthalene]
Result: 32492

Query: # return recorded Fluorescence intensity, fluorescence competitive binding assay, OBP11 for entry OC1CCCCC1 [cyclohexanol]
Result: 24654

Query: Report Fluorescence intensity, fluorescence competitive binding assay, OBP11, nothing else, for this compound: Cc1cc(C(C)(C)C)c(O)c(C(C)(C)C)c1 [BHT(2,6-di-tert-butyl-4-methylphenol)]
Result: 22100
